Values compiled from ChEMBL document CHEMBL3885861.

Species: Rattus norvegicus
Test: Open TG-GATES - Regimen: Daily Repeat
Assay type: toxicity, organism-based, Sprague-Dawley
Set-up: regimen Daily Repeat, gender Male, age 6 weeks
Conditions: in vivo, po, 300 mg/kg, 72 h, tissue Blood, route gavage, dose level Middle, time 3 day
Parameter: Eos
The number alone won't do; follow it with the unit.

| Compound | Eos |
| --- | --- |
| COc1ccc2[nH]c([S+]([O-])Cc3ncc(C)c(OC)c3C)nc2c1 (stereo not given) [OMEPRAZOLE] | 0.8% |
| CCOC(=O)CCC(=O)O[C@H]1[C@H](O[C@@H]2[C@@H](C)[C@H](O[C@H]3C[C@@](C)(OC)[C@@H](O)[C@H](C)O3)[C@@H](C)C(=O)O[C@H](CC)[C@@](C)(O)[C@H](O)[C@@H](C)C(=O)[C@H](C)C[C@@]2(C)O)O[C@H](C)C[C@@H]1N(C)C [ERYTHROMYCIN ETHYLSUCCINATE] | 1% |

Query: Would you kindly share the measured Eos for CCOc1ccc(NC(=O)CC(C)O)cc1 (stereo not given) [BUCETIN] ?
Result: 1.2%

Query: Item under review: COC1=CC(=O)C[C@@H](C)[C@]12Oc1c(Cl)c(OC)cc(OC)c1C2=O [GRISEOFULVIN] . Reported Eos?
Result: 1%

Query: Requested field: Eos. Item: NC(N)=Nc1nc(CSCCC(N)=NS(N)(=O)=O)cs1 [FAMOTIDINE]
Result: 1%

====

Measured Plat values are reported for all entries that follow.
Species on record: Rattus norvegicus
Assay: Open TG-GATES - Regimen: Single
Type: toxicity, organism-based, Sprague-Dawley
Parameters: regimen Single, gender Male, age 6 weeks
Conditions: in vivo, po, 30 mg/kg, 6 h, tissue Blood, route gavage, dose level Middle
Unit x10_4/uL implied. Number only.

Known Plat results, listed for orientation:
| Molecule | Unit of measurement | Recorded result |
| --- | --- | --- |
| CN(C)CCCN1c2ccccc2CCc2ccccc21 [IMIPRAMINE] | x10_4/uL | 122.8 |
| CN(C)CCN(Cc1cccs1)c1ccccn1 | x10_4/uL | 117.9 |
| CC1=C(/C=C/C(C)=C/C=C/C(C)=C/CO)C(C)(C)CCC1 [RETINOL] | x10_4/uL | 119.2 |

Query: Suppose we examine the molecule CN(C)CCCN1c2ccccc2CCc2ccc(Cl)cc21 [CLOMIPRAMINE] ; what Plat value has been reported?
Result: 114.1

====

Here, each record is paired with measured Fbg data.
Species on record: Rattus norvegicus
Assay: Open TG-GATES - Regimen: Single
Type: toxicity, organism-based, Sprague-Dawley
Design: regimen Single, gender Male, age 6 weeks
Settings: in vivo, po, 100 mg/kg, 3 h, tissue Blood, route gavage, dose level Low
// return numeric value only (unit: mg/dL, not printed)

| Compound | Fbg / mg/dL |
| --- | --- |
| COC1=CC(=O)C[C@@H](C)[C@]12Oc1c(Cl)c(OC)cc(OC)c1C2=O [GRISEOFULVIN] | 213 |

Query: Find the recorded Fbg belonging to CCOC(=O)CCC(=O)O[C@H]1[C@H](O[C@@H]2[C@@H](C)[C@H](O[C@H]3C[C@@](C)(OC)[C@@H](O)[C@H](C)O3)[C@@H](C)C(=O)O[C@H](CC)[C@@](C)(O)[C@H](O)[C@@H](C)C(=O)[C@H](C)C[C@@]2(C)O)O[C@H](C)C[C@@H]1N(C)C [ERYTHROMYCIN ETHYLSUCCINATE] and report it.
Result: 311.4

Query: What does the record list as Fbg for COc1ccc2[nH]c([S+]([O-])Cc3ncc(C)c(OC)c3C)nc2c1 (centres undefined) [OMEPRAZOLE] ?
Result: 209.8

Query: Which Fbg is listed for NC(N)=Nc1nc(CSCCC(N)=NS(N)(=O)=O)cs1 [FAMOTIDINE] ?
Result: 217.4
